Quick reference: IC50 of the listed items.
# tested-system: Human immunodeficiency virus type 1 reverse transcriptase (Human immunodeficiency virus 1)
# assay-info: Inhibition of HIV1 RNase H function of recombinant reverse transcriptase using an 18-nt 3'-fluorescein-labeled RNA annealed to complementary 18-nt 5'-dabsyl-labeled DNA as substrate after 10 mins by fluorescence spectrometer analysis
measured-property: IC50 (µM)

1. O=C(O)/C(O)=C/C(=O)c1cn(Cc2ccc(F)cc2)c2cc(N3CCOCC3)ccc2c1=O; 6.8
2. O=C(O)/C(O)=C/C(=O)c1cn(Cc2ccc(F)cc2)c2cc(N3CCN(CCCCl)CC3)ccc2c1=O; 5.7
3. O=C(O)/C(O)=C/C(=O)c1cn(Cc2ccc(F)cc2)c2cc(N3CCCC3)ccc2c1=O; 5.1
